system: PFTK1; construct: gene CDK14; conditions: concentration: 1 μM,replicates: in singlicate; n = 1;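 note: KINOMEscan kinase panel screen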
MEASUREMENT_KIND: %Inh

1) CC(C)S(=O)(=O)N1CCN(Cc2ccc3c(c2)nc(NC(=O)c2ccsc2)n3C[C@H](O)c2ccccc2)CC1 [GW635815] ... 0%
2) C[C@@H](Oc1cc(-n2cnc3cc(-c4ccncc4)ccc32)sc1C(N)=O)c1ccccc1Cl [GSK479719] ... 18%
3) Cn1ccc2ncnc(Oc3ccc(NC(=O)Nc4ccnc(C(F)(F)F)c4)c(Cl)c3)c21 ... 0%
4) C[C@@H](Oc1cc(-n2cnc3cc(-c4cnn(C)c4)ccc32)sc1C(N)=O)c1ccccc1Cl [GSK580432] ... 7%
5) CC(=O)c1c(-c2ccncc2)[nH]c(-c2ccncc2)c1C [GW493036] ... 26%
6) COc1cc2ncn(-c3cc(OCC4CCCCC4)c(C(N)=O)s3)c2cc1OC [GSK204559] ... 24%
7) CN1CCN(CCNc2nc3cc(Oc4ccc(NC(=O)Nc5cc(C(F)(F)F)ccc5F)cc4)ccc3[nH]2)CC1.Cl.Cl [GW768504] ... 18%
8) Cn1cc(-c2cccc3c(N)c(C(N)=O)nnc23)cn1 ... 0%

src = paper PMC5540273
